Overview of recorded log10 IC50 for various compounds
Molecular target: NK3 (Homo sapiens, UniProt P29371)
Sequence (P29371 1-465): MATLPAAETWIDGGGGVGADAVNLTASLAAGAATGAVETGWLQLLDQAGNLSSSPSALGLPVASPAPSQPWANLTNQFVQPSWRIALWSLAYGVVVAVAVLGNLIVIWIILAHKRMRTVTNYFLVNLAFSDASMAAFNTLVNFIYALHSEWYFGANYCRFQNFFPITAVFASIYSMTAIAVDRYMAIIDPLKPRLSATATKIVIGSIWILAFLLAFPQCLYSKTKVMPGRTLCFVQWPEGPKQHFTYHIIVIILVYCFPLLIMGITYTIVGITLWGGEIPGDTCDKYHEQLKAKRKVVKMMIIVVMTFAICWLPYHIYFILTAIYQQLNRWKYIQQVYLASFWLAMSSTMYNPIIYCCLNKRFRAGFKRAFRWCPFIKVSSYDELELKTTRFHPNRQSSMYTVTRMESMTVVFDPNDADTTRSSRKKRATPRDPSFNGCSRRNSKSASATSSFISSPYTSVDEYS
Experiment: Signal transduction (ST), intracellular Ca++ (FLIPR), NK3
Format: cell-based
Conditions: read-out: pIC50 NK3 (converted)
MEASUREMENT NAME: log10 IC50 (log10 of the value in µM)

{"COMPOUND": "CC(C)S(=O)(=O)N1CCCC(N2CCN([C@H]3CCN(C(=O)c4cc(C(F)(F)F)cc(C(F)(F)F)c4)[C@H](Cc4ccccc4)C3)CC2)C1 (stereo partly drawn)", "MEAS VALUE": 0.30}
{"COMPOUND": "O=C(c1cc(C(F)(F)F)cc(C(F)(F)F)c1)N1CC[C@H](N2CCN(C3CCCN(S(=O)(=O)c4ccc(CO)cc4)C3)CC2)C[C@H]1Cc1ccccc1 (stereo partly drawn)", "MEAS VALUE": -0.60}
{"COMPOUND": "O=C(C1CC1)N1CCCC(N2CCCN([C@@H]3CCN(C(=O)c4cc(C(F)(F)F)cc(C(F)(F)F)c4)[C@H](Cc4ccccc4)C3)CC2)C1 (stereo partly drawn)", "MEAS VALUE": 0.90}
{"COMPOUND": "O=C(c1cc(C(F)(F)F)cc(C(F)(F)F)c1)N1CCC(N2CCN(C3CCCN(S(=O)(=O)c4ccc(O)cc4)C3)CC2)CC1Cc1ccccc1 (stereo not drawn)", "MEAS VALUE": -0.50}
{"COMPOUND": "O=C(C1CCCC1)N1CCCC(N2CCN(C3CCN(C(=O)c4cc(C(F)(F)F)cc(C(F)(F)F)c4)C(Cc4ccccc4)C3)CC2)C1 (stereo not drawn)", "MEAS VALUE": -1.00}
{"COMPOUND": "COc1ccc(S(=O)(=O)N2CCCC(N3CCN([C@H]4CCN(C(=O)c5cc(C(F)(F)F)cc(C(F)(F)F)c5)[C@H](Cc5ccccc5)C4)CC3)C2)s1 (stereo partly drawn)", "MEAS VALUE": 0.10}

---

Overview of recorded IC50 for various compounds
Target: UniProt:P21452
Sequence (P21452 whole entry): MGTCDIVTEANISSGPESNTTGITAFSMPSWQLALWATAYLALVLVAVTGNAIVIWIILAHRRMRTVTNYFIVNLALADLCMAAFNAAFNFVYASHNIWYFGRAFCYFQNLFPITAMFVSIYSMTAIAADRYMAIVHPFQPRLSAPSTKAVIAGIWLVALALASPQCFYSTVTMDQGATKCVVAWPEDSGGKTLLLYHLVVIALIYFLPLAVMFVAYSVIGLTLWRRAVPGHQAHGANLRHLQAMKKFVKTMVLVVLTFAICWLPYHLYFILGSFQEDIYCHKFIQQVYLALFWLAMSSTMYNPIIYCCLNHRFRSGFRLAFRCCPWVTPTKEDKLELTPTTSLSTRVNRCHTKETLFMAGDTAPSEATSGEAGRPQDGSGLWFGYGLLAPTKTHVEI
Assay: Signal transduction (ST), intracellular Ca++ (FLIPR), NK2
Assay type: cell-based
Conditions: read-out: pIC50 NK2 (converted)

{"COMPOUND": "O=C(c1cc(C(F)(F)F)cc(C(F)(F)F)c1)N1CC[C@H](N2CCN(C3CCCN(c4cnccn4)C3)CC2)C[C@H]1Cc1ccccc1 (stereo partly shown) [Compound 26]", "U": "nM", "IC50": 7940}
{"COMPOUND": "O=C(c1cc(C(F)(F)F)cc(C(F)(F)F)c1)N1CC[C@H](N2CCN(C3CCCN(S(=O)(=O)c4ccsc4)C3)CC2)C[C@H]1Cc1ccccc1 (stereo partly shown) [Compound 29]", "U": "nM", "IC50": 1260}
{"COMPOUND": "O=C(c1cc(C(F)(F)F)cc(C(F)(F)F)c1)N1CC[C@H](N2CCN(C3CCCN(S(=O)(=O)c4ccc5nonc5c4)C3)CC2)C[C@H]1Cc1ccccc1 (stereo partly shown) [Compound 45]", "U": "nM", "IC50": 1580}
{"COMPOUND": "O=C(C(O)c1ccccc1)N1CCCC(N2CCN([C@H]3CCN(C(=O)c4cc(C(F)(F)F)cc(C(F)(F)F)c4)[C@H](Cc4ccccc4)C3)CC2)C1 (stereo partly shown) [Compound 56]", "U": "nM", "IC50": 1000}
{"COMPOUND": "COc1ccc(NC(=NC#N)N2CCCC(N3CCN([C@H]4CCN(C(=O)c5cc(C(F)(F)F)cc(C(F)(F)F)c5)[C@H](Cc5ccccc5)C4)CC3)C2)cc1 (stereo partly shown) [Compound 94]", "U": "nM", "IC50": 3980}
{"COMPOUND": "O=C(c1cc(C(F)(F)F)cc(C(F)(F)F)c1)N1CC[C@H](N2CCN(C3CCCN(S(=O)(=O)c4cccc(O)c4)C3)CC2)C[C@H]1Cc1ccccc1 (stereo partly shown) [Compound 80]", "U": "nM", "IC50": 794}
{"COMPOUND": "O=C(c1cc(C(F)(F)F)cc(C(F)(F)F)c1)N1CCC(N2CCN(C3CCCN(C(CO)c4cccs4)C3)CC2)CC1Cc1ccccc1 (stereo not shown) [Compound 77]", "U": "nM", "IC50": 2000}

---

Target: NK3 (Homo sapiens)
Experiment: Signal transduction (ST), intracellular Ca++ (FLIPR), NK3
Assay type: cell-based
Details: read-out: pIC50 NK3 (converted)

{"COMPOUND": "CC(=O)OCC(c1ccccc1Cl)N1CCCC(N2CCN(C3CCN(C(=O)c4cc(C(F)(F)F)cc(C(F)(F)F)c4)C(Cc4ccccc4)C3)CC2)C1 (stereo not shown)", "IC50, nM": 2510}
{"COMPOUND": "O=C(c1cc(C(F)(F)F)cc(C(F)(F)F)c1)N1CC[C@H](N2CCN(C3CCCN(C(CO)c4ccoc4)C3)CC2)C[C@H]1Cc1ccccc1 (stereo partly shown)", "IC50, nM": 1000}
{"COMPOUND": "Cc1noc(C)c1S(=O)(=O)N1CCCC(N2CCN([C@H]3CCN(C(=O)c4cc(C(F)(F)F)cc(C(F)(F)F)c4)[C@H](Cc4ccccc4)C3)CC2)C1 (stereo partly shown)", "IC50, nM": 501}
{"COMPOUND": "O=C(c1cc(COCc2ccccc2)cs1)N1CCCC(N2CCN([C@H]3CCN(C(=O)c4cc(C(F)(F)F)cc(C(F)(F)F)c4)[C@H](Cc4ccccc4)C3)CC2)C1 (stereo partly shown)", "IC50, nM": 5010}
{"COMPOUND": "O=C(c1ccc(O)cc1)N1CCCC(N2CCN(C3CCN(C(=O)c4cc(C(F)(F)F)cc(C(F)(F)F)c4)C(Cc4ccccc4)C3)CC2)C1 (stereo not shown)", "IC50, nM": 1580}
{"COMPOUND": "O=C(c1cc(C(F)(F)F)cc(C(F)(F)F)c1)N1CC[C@H](N2CCN(C3CCCN(C(=O)C4(O)CC4)C3)CC2)C[C@H]1Cc1ccccc1 (stereo partly shown)", "IC50, nM": 6310}
{"COMPOUND": "CC(C)N/C(=N\\C#N)N1CCCC(N2CCN(C3CCN(C(=O)c4cc(C(F)(F)F)cc(C(F)(F)F)c4)C(Cc4ccccc4)C3)CC2)C1 (stereo not shown)", "IC50, nM": 3980}
{"COMPOUND": "O=C(C1CCOC1)N1CCCC(N2CCCN(C3CCN(C(=O)c4cc(C(F)(F)F)cc(C(F)(F)F)c4)C(Cc4ccccc4)C3)CC2)C1 (single isomer, unassigned) [Compound 121]", "IC50, nM": 7940}
{"COMPOUND": "O=C(c1cccnc1)N1CCCC(N2CCN([C@H]3CCN(C(=O)c4cc(C(F)(F)F)cc(C(F)(F)F)c4)[C@H](Cc4ccccc4)C3)CC2)C1 (stereo partly shown)", "IC50, nM": 2000}
{"COMPOUND": "O=C(c1cc(C(F)(F)F)cc(C(F)(F)F)c1)N1CC[C@H](N2CCN(C3CCCN(C(=O)n4ccnc4)C3)CC2)C[C@H]1Cc1ccccc1 (stereo partly shown)", "IC50, nM": 1260}
{"COMPOUND": "COc1ccccc1C(=O)N1CCCC(N2CCN([C@H]3CCN(C(=O)c4cc(C(F)(F)F)cc(C(F)(F)F)c4)[C@H](Cc4ccccc4)C3)CC2)C1 (stereo partly shown)", "IC50, nM": 501}
{"COMPOUND": "O=C(c1cc(C(F)(F)F)cc(C(F)(F)F)c1)N1CC[C@H](N2CCN(C3CCCN(S(=O)(=O)c4c(Cl)nc5sccn45)C3)CC2)C[C@H]1Cc1ccccc1 (stereo partly shown)", "IC50, nM": 794}
{"COMPOUND": "O=C(c1ccccc1)N1CCCC(N2CCN([C@H]3CCN(C(=O)c4cc(C(F)(F)F)cc(C(F)(F)F)c4)[C@H](Cc4ccccc4)C3)CC2)C1 (stereo partly shown)", "IC50, nM": 251}
{"COMPOUND": "O=C(c1cc(C(F)(F)F)cc(C(F)(F)F)c1)N1CCC(N2CCN(C3CCCN(S(=O)(=O)c4cccs4)C3)CC2)CC1Cc1ccccc1 (stereo not shown)", "IC50, nM": 2000}
{"COMPOUND": "O=C(c1ccccc1F)N1CCCC(N2CCN([C@H]3CCN(C(=O)c4cc(C(F)(F)F)cc(C(F)(F)F)c4)[C@H](Cc4ccccc4)C3)CC2)C1 (stereo partly shown)", "IC50, nM": 794}
{"COMPOUND": "O=C(Cc1cccs1)N1CCCC(N2CCN([C@H]3CCN(C(=O)c4cc(C(F)(F)F)cc(C(F)(F)F)c4)[C@H](Cc4ccccc4)C3)CC2)C1 (stereo partly shown)", "IC50, nM": 501}
{"COMPOUND": "Cc1cc(C)cc(C(=O)N2CCCC(N3CCN(C4CCN(C(=O)c5cc(C(F)(F)F)cc(C(F)(F)F)c5)C(Cc5ccccc5)C4)CC3)C2)c1 (stereo not shown)", "IC50, nM": 2000}
{"COMPOUND": "O=C(c1ccccc1Cl)N1CCCC(N2CCCN([C@H]3CCN(C(=O)c4cc(C(F)(F)F)cc(C(F)(F)F)c4)[C@H](Cc4ccccc4)C3)CC2)C1 (stereo partly shown)", "IC50, nM": 2510}
{"COMPOUND": "Cc1nnsc1C(=O)N1CCCC(N2CCN([C@H]3CCN(C(=O)c4cc(C(F)(F)F)cc(C(F)(F)F)c4)[C@H](Cc4ccccc4)C3)CC2)C1 (stereo partly shown)", "IC50, nM": 501}
{"COMPOUND": "O=C(C1CCOC1)N1CCCC(N2CCCN(C3CCN(C(=O)c4cc(C(F)(F)F)cc(C(F)(F)F)c4)C(Cc4ccccc4)C3)CC2)C1 (single isomer, unassigned) [Compound 115]", "IC50, nM": 6310}
{"COMPOUND": "O=C(c1cc(C(F)(F)F)cc(C(F)(F)F)c1)N1CC[C@H](N2CCN(C3CCCN(S(=O)(=O)c4cccc(O)c4)C3)CC2)C[C@H]1Cc1ccccc1 (stereo partly shown)", "IC50, nM": 501}
{"COMPOUND": "COc1ccc(NC(=NC#N)N2CCCC(N3CCN([C@H]4CCN(C(=O)c5cc(C(F)(F)F)cc(C(F)(F)F)c5)[C@H](Cc5ccccc5)C4)CC3)C2)cc1 (stereo partly shown)", "IC50, nM": 1000}
